B1: glmS ribozyme (parent)
chain: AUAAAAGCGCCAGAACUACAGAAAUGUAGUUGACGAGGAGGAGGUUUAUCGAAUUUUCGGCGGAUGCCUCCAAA

# Variants of: B1
# Assay method text: self-cleavage kobs at 10000 uM GlcN6P; higher = faster cleavage; RNA array
# Details: with glucosamine-6-phosphate
This sample holds only a part of the variants without activity.
Value kind: self-cleavage kobs at 10000 uM GlcN6P (s⁻¹)

Entry sequence | Result units | Reading qualifier | Test value
AUAAAAGCGCCAGAACUACAGAAAUGUAGUUGACGAGGAGGGGGUUUAUUGAAUUUUCGGCGUAUGCCUCGAAA | s⁻¹ | < | 1e-05
AUAAAAGCGCCAGAACUACAGAAAUGUAGUUGACCAGGAGGAGGUUUUUCGAAUUUUCGGCGGAUGCCUCCAAA | s⁻¹ | < | 1e-05
AUAAAAGCGCUACAACUACAGAAAUGUAGUUGACGAGGAGGAGGUUUAUCGUAUUUUCGGCGGAUGCCUUCAAA | s⁻¹ | < | 1e-05
AUAAAAGCGCCAGAACUACAGAAAUGUAGUUGACGAGGAGGACGUUUAUCGAAUUUUCGGCGGAUGCCGCCAAA | s⁻¹ | < | 1e-05
AUAAAGGCGCCAGAACUACAGAAAUGUAGUUGGCGAGGAGGAGGUUUGUCGAAUUUUCGGCGGUUGCCUCCAAA | s⁻¹ | < | 1e-05
AUAAAAGCGCCAGAAGUACAGAAAUGUAGUUGACGAGGAGGAGGUUUAUCGAAUUUUCGGCGUAUGCCUCCAAA | s⁻¹ | < | 1e-05
AUAAAAGCGCCAGAACUACAGAAAUGUAGUAGACGAGGCGGAGGUUUAUGGAAUUUUCGGCGGAUGCCUCAAAA | s⁻¹ | < | 1e-05
AUAAAAAGGCCAGAACUACAGAAAUGUAGUUGACGAGGAGGAGGUUUAUCGAAUUUUCGGCGGAUGCCUCCAAA | s⁻¹ | < | 1e-05
AUAAAAGCGCCAGAUCUACAGAAAUGUAGUUGACGAGGAGGAAUUUUAUCGAAUUUUCGGCAGAUGCCUCCAAA | s⁻¹ | < | 1e-05
AUAAAAGCGCCAGAACUACAGAAAUGUAGUUGACGAGGAGAAGGUUUAUCGAAUUUGCGGCGGAUGCCUCCAAA | s⁻¹ | < | 1e-05
AUAAAAGCGCCAGAACUACAGAAAUGUAGUUGACGAGGAGGUGGUUUAUCGAAUUUUCGGCGGCUGUCUCCAAA | s⁻¹ | < | 1e-05
AUAAAAGCACCAGAACUACAGAAAUGUAGUUGACGAGGAGGAGGUUUAUCGAAUUUUCGGCGGAUGCCUCCAAA | s⁻¹ | = | 2.61e-05
AUAAAAGCGUCAGAACUACAGAAAUGUAGUUGACGAGGAGGAGGUUUAUCGAAUAUUCGGCGGAUGCCUCCAAA | s⁻¹ | = | 1.77e-05
AUAAAAGCGCCAGAACUACAGAAAUGUAGUUGACGAGGAGGAGGUUUAUCGAACUUUCGGCGGAUGGCUCCAAA | s⁻¹ | = | 0.00137
AUAAAAGCGCCAGAACUACAGAAAUGUAGUUGACGAGGAGGAGGUUUAUCGAAUAUUCGGCGGAUGCCACCAAA | s⁻¹ | = | 0.000129
AUAAAAGCGCCAGAACUACAGAAAUGUAGUUUACGAGGAGGAGGUUUAUCGAAUCUUCGGCGGAUGCCUCCAAA | s⁻¹ | = | 0.000584
AUAAAAGCGCCAGAUCUACAGAAAUGUAGUUGACGAGGAGGAGGUUUAUCGAAUUUUCGGCGGAAGCCUCCAAA | s⁻¹ | = | 0.00039
AUAAAAGCGCCAUAACUACAGAAAUGUAGUUGACGAGGAGGAGGUUUAUCGAAUUUUCGGCGGAGGCCUCCAAA | s⁻¹ | = | 0.000276
AUAAAAGCGCCAGAACUACAGAAAUGUAGUUGACGAGGAGGAGGUUUAUCGAACUUUCGGCGGAAGCCUCCAAA | s⁻¹ | = | 0.00332
AUAAAAGCGCAAGAACUACAUAAAUGUAGUUGACGAGGAGGAGGUUUAUCGAAUUUUCGGCGGAUGCCUCCAAA | s⁻¹ | = | 0.000164
AUAAAAGCUCCAGAACUACAGAAAUGUACCUGACGAGGAGGAGGUUUAUCGAAUUUUCGGCGGAUGCCUCCAAA | s⁻¹ | < | 1e-05
AUAAAAGCGCUAGAACUACAGAAAUGUAGUUGACGAGGAAGAGGUUUAUCGAAUUUUCGGCGGAUGCCUCCAAA | s⁻¹ | = | 0.000374
AUAAAAGCGACAGAACUACAGAAAUGUAGUUGACGAGGAGGAGGUUCAUCGAAUUUUCGGCUGAUGCCUCCAAA | s⁻¹ | < | 1e-05
AUAAAAGCGCCCGAACUACAGAAAUGUAGUUGACGAGCAGGUGGUUUAUCGAAUUUUCGGCGGAUGCCUCCAAA | s⁻¹ | < | 1e-05
AUAAAAGCGCCAGAACUACAGAAAUGUAGUGGACGCGGAGGAGGUUUAGCGAAUUUUCGGCGGAUGCCUCCAAA | s⁻¹ | = | 0.000385
AUAAAAGCGCCAGAACUACAGAAAUGUAGUUAACGAGGAGGAGGUUUAUCGAUUUUUCGGCGGAUGCCUCCAAA | s⁻¹ | = | 0.00228
AUAAAAGCGCCAGAACUACAGAAAUGUAGUUGACGAGGAGGAGGUUUAUCGAGUUUUCGGCGGAUGCUUCCAAA | s⁻¹ | = | 0.00554
AUAAAAGCGCCAGAACUACAGAAAUGUAGGUGACGGGGAUGAGGUUUAUCGAAUUUUCGGCGGAUGCAUCCAAA | s⁻¹ | < | 1e-05
AUAAAAGCGCCAGAACUACAGAAAUGUAGCUGACGAGGAGGAGGUUUAUCGAAUCUUCGGCGGAUGCCUUCAAA | s⁻¹ | = | 8.64e-05
AUAAAGGCGCCAGAACUACAGAAAUGUAGUUAACGAGGAGGAGGUUUAGCGAAUAUUCGGCGGAUGCCUCCAAA | s⁻¹ | < | 1e-05
AUAAAAGCGUCAGAACUACAGAAAUGUAGUUGACGAGGAGGAGGUUUAUGGAAUUUUCGGCGGAUGCCUCCAAA | s⁻¹ | = | 0.000116
AUAAAAGCGCCAGAACUACAGAAAUGUAGUUGACGAGGAGGAGAAUUAUCGAAUUUUGGGCGGAUGCCUCCAAA | s⁻¹ | < | 1e-05
AUAAAAGCGCGAGAACUACAGAAAUGUAGUUGACGAGGGGGAGGUGUAUCGAAUUUUCGGUGGACGCAUCCAAA | s⁻¹ | < | 1e-05
AUAAAAGCGCCACAACUACAGAAAUGUAUUUAACGAGGAGGAGGUUUAUCGAAUUUUCGGCGGAUGCCUCCAAA | s⁻¹ | = | 0.00214
AUAAAAGCGCGAGAACUACAGAAAUGUAGUUGACGAGGAGGACGUUUAUCGAAUUUUCGGCGGUUGCCUCCAAA | s⁻¹ | < | 1e-05
